Origin of measurements: ChEMBL document CHEMBL1142373

Exercise: for every item that follows, state its recorded logD.
- testSummary: Lipophilicity, Log D at pH 7.4
- Assay type: physicochemical
- assaySetup: buffer
Numbers only.

QUERY: For the compound `Clc1ccc(C(c2ccc(CN3CCCC3)cc2)(c2ccc(CN3CCCC3)cc2)n2ccnc2)cc1` , give its measured logD value.
RESULT: 1.56

Now look at this entry.
QUERY: Return logD for the following compound: Clc1ccc(C(c2ccccc2)(c2ccc(CN3CCCC3)cc2)n2ccnc2)cc1 (racemic)
RESULT: 3.33

---

- Tested on: Candida albicans
- testSummary: Antifungal activity against Candida albicans
- Type: functional
parameterMeasured: MIC (µg/mL)
Give bare numbers, in µg/mL.

Below are worked cases with known answers.
QUERY: GET MIC where system = Candida albicans and item = `Clc1ccccc1C(c1ccccc1)(c1ccccc1)n1ccnc1`
RESULT: 0.03

QUERY: Fill: MIC (Candida albicans) for this compound Fc1ccc(C(c2ccc(CN3CCCC3)cc2)(c2ccnc3cc(Cl)ccc23)n2ccnc2)cc1 (racemic)
RESULT: 8

Now consider a different compound.
QUERY: Fill in: MIC on Candida albicans, entry Clc1ccc(C(c2ccccc2)(c2ccc(CN3CCCC3)cc2)n2ccnc2)cc1 (racemic)
RESULT: 32

---

- testSummary: Cytotoxicity against human lymphocytes after 48 hrs by MTT assay
- Format: cell-based, Lymphocyte
- assaySetup: read-out: TC50
Give measured CC50 at 48 h for each item. Keep answers brief.
Give bare numbers, in µM.

Worked set:
QUERY: Specify CC50 at 48 h for Clc1ccc(C(c2ccccc2)(c2ccc(CN3CCNCC3)cc2)n2ccnc2)cc1 (racemic) and stop.
RESULT: 13.7

QUERY: Return value of CC50 at 48 h for input Clc1cccc(C(c2ccc(CN3CCCC3)cc2)(c2nccs2)n2ccnc2)c1 (racemic) , no commentary.
RESULT: 80.5

Give one value of CC50 at 48 h per listed compound.
1. Clc1ccc(C(c2ccc(CN3CCCC3)cc2)(c2ccc(CN3CCCC3)cc2)n2ccnc2)cc1
2. Clc1ccc(C(c2ccccc2)(c2ccc(CN3CCOCC3)cc2)n2ccnc2)cc1 (racemic)
3. Clc1ccc(C(c2ccccc2)(c2ccc(CN3CCCC3)cc2)n2ccnc2)cc1 (racemic)

RESULT:
[68.5, 13.3, 70.3]

---

- testSummary: Cytotoxicity against human KB cells by MTT assay
- Type: cell-based
- assaySetup: read-out: TC50 (the source's name)
Exercise: state measured CC50 for each of the molecules provided.
Numbers only, in µM.

Study these solved cases before continuing.
QUERY: Identify measured CC50 associated with `Clc1ccccc1C(c1ccccc1)(c1ccccc1)n1ccnc1`
RESULT: 88.1

QUERY: Look up and state reported CC50 for CCN(CC)CCCC(C)Nc1ccnc2cc(Cl)ccc12 (stereo not drawn)
RESULT: 207

QUERY: Input Clc1ccc(C(c2ccccc2)(c2ccc(CN3CCCC3)cc2)N2CCNCC2)cc1 (racemic) , output reported CC50.
RESULT: 20.9

QUERY: Tell me its CC50 given Fc1ccc(C(c2ccc(CN3CCCC3)cc2)(c2ccnc3cc(Cl)ccc23)n2ccnc2)cc1 (racemic) as the entry.
RESULT: 33

QUERY: Consider the molecule Fc1ccc(C(c2ccc(Cl)cc2)(c2ccc(CN3CCCC3)cc2)n2ccnc2)cc1 (racemic) and give its recorded CC50.
RESULT: 8.2

QUERY: Give reported CC50 value for Clc1cccc(C(c2ccc(CN3CCCC3)cc2)(c2ccccn2)n2ccnc2)c1 (racemic)
RESULT: 27.2

QUERY: Give CC50 for Clc1ccc2c(C(c3ccccc3)(c3ccc(CN4CCCC4)cc3)n3ccnc3)ccnc2c1 (racemic)
RESULT: 51.8

We next turn to a different molecule, shown below.
QUERY: Indicate its recorded CC50; the molecule in question is Clc1ccc(C(c2ccc(CN3CCCC3)cc2)(c2nccs2)n2ccnc2)cc1 (racemic)
RESULT: 64.2

---

- testSummary: Cytotoxicity against mouse NSO cells after 48 hrs by MTT assay
- Assay type: cell-based
- assaySetup: read-out: TC50
parameterMeasured: CC50 at 48 h (µM)
One number for each entry, in µM.

QUERY: Quote CC50 at 48 h reported for Clc1ccc(C(c2ccccc2)(c2ccc(CN3CCOCC3)cc2)n2ccnc2)cc1 (racemic) please.
RESULT: 16

QUERY: Give recorded CC50 at 48 h. Clc1ccc(C(c2ccccc2)(c2ccc(CN3CCCC3)cc2)n2ccnc2)cc1 (racemic)
RESULT: 51.5

QUERY: Complete the entry with CC50 at 48 h for `Clc1ccc(C(c2ccc(CN3CCCC3)cc2)(c2ccc(CN3CCCC3)cc2)n2ccnc2)cc1`
RESULT: 47

QUERY: Check the records and state CC50 at 48 h for Clc1ccc(C(c2ccccc2)(c2ccc(CN3CCNCC3)cc2)n2ccnc2)cc1 (racemic)
RESULT: 16.2

Would you kindly look at the next entry?
QUERY: Note CC50 at 48 h for the molecule shown: Clc1cccc(C(c2ccc(CN3CCCC3)cc2)(c2nccs2)n2ccnc2)c1 (racemic)
RESULT: 52.9

---

- testSummary: Lipophilicity, Log D at pH 7.2
- Format: physicochemical
- assaySetup: buffer
For each record, write down the corresponding logD.
One number for each entry.

QUERY: Answer with reported logD of `Clc1ccc(C(c2ccc(CN3CCCC3)cc2)(c2ccc(CN3CCCC3)cc2)n2ccnc2)cc1`
RESULT: 1.4

Now take the following compound into account.
QUERY: Output logD of Clc1ccc(C(c2ccccc2)(c2ccc(CN3CCCC3)cc2)n2ccnc2)cc1 (racemic)
RESULT: 3.13

---

- testSummary: Cytotoxicity against human Daudi cells after 48 hrs by MTT assay
- Assay type: cell-based
- assaySetup: read-out: TC50
Please go through the items and note down their CC50 at 48 h.
One number for each entry, in µM.

Some entries whose results are on file:
QUERY: Note CC50 at 48 h for the molecule shown: Clc1ccc(C(c2ccccc2)(c2ccc(CN3CCCC3)cc2)n2ccnc2)cc1 (racemic)
RESULT: 58.5

QUERY: Item Clc1cccc(C(c2ccc(CN3CCCC3)cc2)(c2nccs2)n2ccnc2)c1 (racemic) : provide CC50 at 48 h
RESULT: 57.5

QUERY: Give the measured CC50 at 48 h for `Clc1ccc(C(c2ccc(CN3CCCC3)cc2)(c2ccc(CN3CCCC3)cc2)n2ccnc2)cc1`
RESULT: 58.7

QUERY: Assign CC50 at 48 h to the following record: Clc1ccc(C(c2ccccc2)(c2ccc(CN3CCNCC3)cc2)n2ccnc2)cc1 (racemic)
RESULT: 15.8

// next entry
QUERY: Write down CC50 at 48 h measured for item Clc1ccc(C(c2ccccc2)(c2ccc(CN3CCOCC3)cc2)n2ccnc2)cc1 (racemic)
RESULT: 15.6

---

- Tested on: Plasmodium falciparum
- testSummary: Antiplasmodial activity against chloroquine-sensitive Plasmodium falciparum D10 by parasite lactate dehydrogenase assay
- assaySetup: D10, 72 h
Output: class label from IC50. Mapping: low: < 300 nM; intermediate: ≥ 300 nM and < 1000 nM; high: ≥ 1000 nM

Worked examples follow.
QUERY: Lab note: which band did Clc1ccc(C(c2ccccc2)(c2ccc(CN3CCNCC3)cc2)n2ccnc2)cc1 (racemic) land in?
RESULT: low

QUERY: Which category does the recorded IC50 put `Clc1ccc(C(c2ccc(CN3CCCC3)cc2)(c2ccc(CN3CCCC3)cc2)n2ccnc2)cc1` in?
RESULT: low

QUERY: Lab note: which band did Clc1cccc(C(c2ccc(CN3CCCC3)cc2)(c2ccccn2)n2ccnc2)c1 (racemic) land in?
RESULT: intermediate

Here is another molecule to look at.
QUERY: Which category does the recorded IC50 put Fc1ccc(C(c2ccc(Cl)cc2)(c2ccc(CN3CCCC3)cc2)n2ccnc2)cc1 (racemic) in?
RESULT: low

---

- Tested on: Cryptococcus neoformans
- testSummary: Antifungal activity against Cryptococcus neoformans
- Assay type: functional
parameterMeasured: MIC

Worked set:
QUERY: // fetch MIC for `Clc1ccccc1C(c1ccccc1)(c1ccccc1)n1ccnc1` ; system: Cryptococcus neoformans
RESULT: 2 µg/mL

QUERY: Report measured MIC on Cryptococcus neoformans; entry: Fc1ccc(C(c2ccc(CN3CCCC3)cc2)(c2ccnc3cc(Cl)ccc23)n2ccnc2)cc1 (racemic)
RESULT: > 32 µg/mL

Please supply MIC for each of the following items, keeping them in order.
1. Clc1ccc(C(c2ccccc2)(c2ccc(CN3CCCC3)cc2)n2ccnc2)cc1 (racemic)
2. Clc1ccc(C(c2ccc(CN3CCCC3)cc2)(c2ccc(CN3CCCC3)cc2)n2ccnc2)cc1

RESULT:
1. 32 µg/mL
2. > 32 µg/mL

---

I'd be grateful if you could share measured MIC for these entries.
- Tested on: Aspergillus flavus
- testSummary: Antifungal activity against Aspergillus flavus ATCC 204304
- Format: functional

Take a look at these entries with their results.
QUERY: Given `Clc1ccccc1C(c1ccccc1)(c1ccccc1)n1ccnc1` , respond with its MIC.
RESULT: 4 µg/mL

QUERY: In one line, give reported MIC of the entry Fc1ccc(C(c2ccc(CN3CCCC3)cc2)(c2ccnc3cc(Cl)ccc23)n2ccnc2)cc1 (racemic) .
RESULT: > 32 µg/mL

// each molecule listed below needs its MIC
1. Clc1ccc(C(c2ccccc2)(c2ccc(CN3CCCC3)cc2)n2ccnc2)cc1 (racemic)
2. Clc1ccc(C(c2ccc(CN3CCCC3)cc2)(c2ccc(CN3CCCC3)cc2)n2ccnc2)cc1

RESULT:
> 32 µg/mL
> 32 µg/mL
